Reference source for all entries: patent US4523033A

Assay procedure: Tissue distribution of radioactivity in rats after intravenous administration
Type: in vivo
Stated conditions: rat, lungs, iv, 60 min, read-out: Distribution of radioactivity, Lungs
Attribute measured: tissue uptake at 1 h (%ID/g)
Respond with the bare value in %ID/g.

Can you share its tissue uptake at 1 h? I mean this molecule: "O=C(O)CCCC[Te]CCCCCCCCCc1ccc([125I])cc1"
1.48

* * *

Assay procedure: Tissue distribution of radioactivity in rats after intravenous administration
Assay type: in vivo
Stated conditions: rat, heart, iv, 5 min, read-out: Distribution of radioactivity, Heart
Attribute measured: tissue uptake at 5 min (%ID/g)
Output spec: scalar in %ID/g, unitless text.

Fill in: tissue uptake at 5 min of "O=C(O)CCCC[Te]CCCCCCCCCc1ccc([125I])cc1" is ___
5.87
